Test system: Hemp Sesbania
Assay: Post-emergence herbicidal activity, greenhouse
Type: in vivo
Conditions: Table II; 5.6 kg/h; 4 WAT
Recorded post-emergence herbicidal activity index, one value per entry.
measured_metric: post-emergence herbicidal activity index

INSERT INTO measurements (chemical_smiles, measured_metric, value_reported) VALUES
  ('CCOC(=O)CN(CP(=O)(Oc1ccc(OC)cc1)Oc1ccc(OC)cc1)SSC', 'post-emergence herbicidal activity index', '3 (75-99% control)'),
  ('COC(=O)CN(CP(=O)(Oc1ccccc1OC)Oc1ccccc1OC)SSc1cccc(C(F)(F)F)c1', 'post-emergence herbicidal activity index', '1 (25-49% control)'),
  ('COC(=O)CN(CP(=O)(Oc1ccccc1)Oc1ccccc1)SSC(C)C', 'post-emergence herbicidal activity index', '4 (100% control)'),
  ('O=C(CN(CP(=O)(Oc1ccccc1)Oc1ccccc1)SSCCc1ccccc1)OCc1ccccc1', 'post-emergence herbicidal activity index', '1 (25-49% control)'),
  ('CCCCCCCCSSN(CC(=O)OC)CP(=O)(Oc1ccccc1)Oc1ccccc1', 'post-emergence herbicidal activity index', '1 (25-49% control)');
